Ref: patent US6211170A

For HCMV NO protease (Human cytomegalovirus, UniProt P16753), measured IC50 is reported for the entries below.
Answers are plain numbers, in µM.

List reported IC50 for each of these compounds:
1. CC[C@@H](NC(=O)N1C(=O)C[C@@H]1COC(=O)Nc1ccccc1)c1ccccc1
2. O=C1C[C@H](CSc2ncccn2)N1C(=O)N1CCC[C@H]1c1ccccc1
3. CC[C@@H](NC(=O)N1C(=O)[C@@H](C)[C@@H]1CSc1nc2ccccc2s1)c1ccccc1
4. CC[C@@H](NC(=O)N1C(=O)C[C@@H]1CSc1nc2ccccc2s1)c1ccccc1
5. CN(Cc1ccco1)C(=O)N1C(=O)C[C@@H]1CSc1ncccn1

[0.4, 34, 1.2, 3.3, 17]

----------
Target: HCMV NO protease (Human cytomegalovirus, UniProt P16753)
Sequence (P16753 1-256): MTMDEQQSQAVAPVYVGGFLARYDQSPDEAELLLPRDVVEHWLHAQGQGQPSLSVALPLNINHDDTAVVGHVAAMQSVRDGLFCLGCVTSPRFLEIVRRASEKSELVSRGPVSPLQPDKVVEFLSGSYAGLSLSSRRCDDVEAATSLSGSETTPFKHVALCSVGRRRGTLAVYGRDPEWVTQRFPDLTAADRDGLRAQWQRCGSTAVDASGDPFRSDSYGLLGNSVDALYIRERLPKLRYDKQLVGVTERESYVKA
Property Name: pIC50
Give bare numbers, as −log10 of the molar value.

Known results for compounds:
Compound	System Tested	pIC50
CC[C@@H](NC(=O)N1C(=O)[C@@H](C)[C@@H]1CSc1ccoc1C)c1ccccc1	HCMV NO protease (Human cytomegalovirus, UniProt P16753)	5.38
CC[C@@H](NC(=O)N1C(=O)C[C@@H]1COc1cccc(CCC(=O)O)c1)c1ccccc1	HCMV NO protease (Human cytomegalovirus, UniProt P16753)	7.00
CN(Cc1ccc(C#N)cc1)C(=O)N1C(=O)C[C@@H]1CSc1ncccn1	HCMV NO protease (Human cytomegalovirus, UniProt P16753)	5.33
CC[C@@H](NC(=O)N1C(=O)[C@@H](C)[C@@H]1CSc1ccc(OC)cc1)c1ccccc1	HCMV NO protease (Human cytomegalovirus, UniProt P16753)	5.32
O=C(OCc1ccccc1)C1CCCN1C(=O)N1C(=O)C[C@@H]1CSc1ncccn1 (stereo partly shown)	HCMV NO protease (Human cytomegalovirus, UniProt P16753)	4.68
CC[C@@H](NC(=O)N1C(=O)[C@@H](C)[C@@H]1CSc1nccc(C)n1)c1ccccc1	HCMV NO protease (Human cytomegalovirus, UniProt P16753)	6.01
CC[C@@H](NC(=O)N1C(=O)C[C@@H]1CSc1nc(C)cc(C)n1)c1ccccc1	HCMV NO protease (Human cytomegalovirus, UniProt P16753)	5.34
CN(Cc1ccc(C(F)(F)F)cc1)C(=O)N1C(=O)C[C@@H]1CSc1nnnn1C	HCMV NO protease (Human cytomegalovirus, UniProt P16753)	6.33

List pIC50 for every entry below, keeping the order given.
1. CC[C@@H](NC(=O)N1C(=O)C[C@@H]1CN(C)Cc1ccccc1)c1ccccc1
2. CC[C@@H](NC(=O)N1C(=O)[C@@H](C)[C@@H]1CSc1nc2ncccc2s1)c1ccccc1

1: 5.00; 2: 5.96

----------
Kindly state CC50 for each of the entries shown.
Experiment: Cytotoxicity, tetrazolium salt (MTT) metabolic assay
Format: cell-based
Settings: cytotoxic effects, read-out: TC50 (the source's name)

Please review the following examples before continuing.
Compound	Property Name	Measured
CC[C@@H](NC(=O)N1C(=O)C[C@@H]1COc1ccccc1)c1ccccc1	CC50	> 250 µM
COC(=O)c1ccc(CN(C)C(=O)N2C(=O)C[C@@H]2CSc2nnnn2C)cc1	CC50	> 250 µM
O=C1C[C@H](CSc2ncccn2)N1C(=O)N1CCC[C@@H]1c1ccccc1	CC50	> 250 µM
CC[C@@H](NC(=O)N1C(=O)C[C@@H]1CSc1nc2ccccc2o1)c1ccccc1	CC50	> 26 µM
CC[C@@H](NC(=O)N1C(=O)[C@@H](C)[C@@H]1CSc1nccc(C)n1)c1ccccc1	CC50	> 250 µM

Field: CC50. Fill in for each record below.
1. CC[C@@H](NC(=O)N1C(=O)[C@@H](C)[C@@H]1CSCC(C)C)c1ccccc1
2. Cn1nnnc1SC[C@H]1CC(=O)N1C(=O)N1CCCC1c1ccccc1[N+](=O)[O-] (some centres unmarked)
3. CC[C@@H](NC(=O)N1C(=O)[C@@H](C)[C@@H]1CSc1ncccn1)c1ccccc1

> 250 µM
> 133 µM
> 250 µM
